# EXPERIMENTAL TARGET: HA–KLC2, O88448
# Sequence (O88448 whole entry): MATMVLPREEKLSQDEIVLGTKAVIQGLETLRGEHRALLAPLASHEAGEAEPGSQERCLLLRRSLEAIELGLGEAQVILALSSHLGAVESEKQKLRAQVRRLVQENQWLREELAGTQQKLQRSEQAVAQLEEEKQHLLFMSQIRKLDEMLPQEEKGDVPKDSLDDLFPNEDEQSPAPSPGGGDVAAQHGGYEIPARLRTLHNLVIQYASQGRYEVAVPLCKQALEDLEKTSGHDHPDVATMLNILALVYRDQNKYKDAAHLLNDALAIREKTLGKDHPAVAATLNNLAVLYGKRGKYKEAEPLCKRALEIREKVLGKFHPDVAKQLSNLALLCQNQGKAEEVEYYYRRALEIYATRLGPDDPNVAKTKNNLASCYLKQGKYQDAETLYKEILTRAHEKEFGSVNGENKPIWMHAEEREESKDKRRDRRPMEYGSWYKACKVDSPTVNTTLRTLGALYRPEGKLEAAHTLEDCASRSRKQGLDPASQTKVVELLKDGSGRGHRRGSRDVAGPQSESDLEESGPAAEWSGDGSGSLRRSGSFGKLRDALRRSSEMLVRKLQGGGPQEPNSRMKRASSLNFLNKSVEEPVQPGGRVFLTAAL
# METHOD NOTES: GST pull-down, immunoblot (IB: HA) quantified
# CONDITIONS USED: chain shown with the change; lysates of 293T cells co-expressing HA-KHC and HA-KLC2 (kinesin-1 tetramer); three independent experiments; parent: est. 1.0; read off a plot
RESULT TYPE: ratio to parent

Examples with their reported ratio to parent follow.
BINDER: GST–SKIP(1-310), Q8IWE5 D220A; F221A; G222A (protein) MEPGEVKDRILENISLSVKKLQSYFAACEDEIPAIRNHDKVLQRLCEHLDHALLYGLQDLSSGYWVLVVHFTRREAIKQIEVLQHVATNLGRSRAWLYLALNENSLESYLRLFQENLGLLHKYYVKNALVCSHDHLTLFLTLVSGLEFIRFELDLDAPYLDLAPYMPDYYKPQYLLDFEDRLPSSVHGSDSLSLNSFNSVTSTNLEWDDSAIAPSSEDYAAADVFPAVPSVPSTDWEDGDLTDTVSGPRSTASDLTSSKASTRSPTQRQNPFNEEPAETVSSSDTTPVHTTSQEKEEAQALDPPDACTEL
ratio to parent: 0.47

BINDER: GST–SKIP(1-310), Q8IWE5 D238A; G239A; D240A (protein) MEPGEVKDRILENISLSVKKLQSYFAACEDEIPAIRNHDKVLQRLCEHLDHALLYGLQDLSSGYWVLVVHFTRREAIKQIEVLQHVATNLGRSRAWLYLALNENSLESYLRLFQENLGLLHKYYVKNALVCSHDHLTLFLTLVSGLEFIRFELDLDAPYLDLAPYMPDYYKPQYLLDFEDRLPSSVHGSDSLSLNSFNSVTSTNLEWDDSAIAPSSEDYDFGDVFPAVPSVPSTDWEAAALTDTVSGPRSTASDLTSSKASTRSPTQRQNPFNEEPAETVSSSDTTPVHTTSQEKEEAQALDPPDACTEL
ratio to parent: 0.89

Documented ratio to parent of GST–SKIP(1-310), Q8IWE5 E217A; D218A; Y219A (protein) MEPGEVKDRILENISLSVKKLQSYFAACEDEIPAIRNHDKVLQRLCEHLDHALLYGLQDLSSGYWVLVVHFTRREAIKQIEVLQHVATNLGRSRAWLYLALNENSLESYLRLFQENLGLLHKYYVKNALVCSHDHLTLFLTLVSGLEFIRFELDLDAPYLDLAPYMPDYYKPQYLLDFEDRLPSSVHGSDSLSLNSFNSVTSTNLEWDDSAIAPSSAAADFGDVFPAVPSVPSTDWEDGDLTDTVSGPRSTASDLTSSKASTRSPTQRQNPFNEEPAETVSSSDTTPVHTTSQEKEEAQALDPPDACTEL : 0.63
